This collection of values is drawn from patent US20090036365A1.

# TARGET OF ASSAY: T1, human plasmin (human, UniProt P00747 97-810, limits assumed)
# T1 construct: also called plasmin-beads; plasmin-agarose beads
# T1 sequence (P00747 97-810 limits assumed): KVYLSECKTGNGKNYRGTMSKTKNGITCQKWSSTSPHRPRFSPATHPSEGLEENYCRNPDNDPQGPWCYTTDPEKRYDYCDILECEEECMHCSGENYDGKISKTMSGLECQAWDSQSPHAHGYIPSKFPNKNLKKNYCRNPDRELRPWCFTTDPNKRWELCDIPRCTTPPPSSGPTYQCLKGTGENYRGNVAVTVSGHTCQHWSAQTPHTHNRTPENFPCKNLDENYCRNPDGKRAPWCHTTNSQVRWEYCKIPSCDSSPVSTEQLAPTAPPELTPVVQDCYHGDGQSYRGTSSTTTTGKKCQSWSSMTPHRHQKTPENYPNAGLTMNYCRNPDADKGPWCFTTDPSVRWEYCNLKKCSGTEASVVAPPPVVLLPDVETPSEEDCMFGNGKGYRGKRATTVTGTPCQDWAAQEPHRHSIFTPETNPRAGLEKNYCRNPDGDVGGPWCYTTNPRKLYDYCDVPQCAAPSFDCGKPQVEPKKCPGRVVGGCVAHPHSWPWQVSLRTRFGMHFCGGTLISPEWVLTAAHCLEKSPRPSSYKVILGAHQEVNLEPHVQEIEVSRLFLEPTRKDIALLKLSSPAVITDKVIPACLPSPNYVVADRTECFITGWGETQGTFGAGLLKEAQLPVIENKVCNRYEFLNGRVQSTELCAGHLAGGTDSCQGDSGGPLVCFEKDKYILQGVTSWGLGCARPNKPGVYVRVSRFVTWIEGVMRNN
# ASSAY INFO: inhibition of plasmin hydrolysis of a fluorogenic substrate, tight-binding fit; measured Ki used as KD
MEASURED QUANTITY: pKd
Hey, just a heads up that pKd is the negative log base 10 of the concentration in molar.

Dear colleague, I am looking for the recorded pKd of the following binder: QS4, yeast-expressed soluble protein (designed binder, Expressed in S. cerevisiae from a mat alpha fusion, purified on trypsin-agarose; also called QS4 variant) EAAEMHSFCAFKADDGPCKARFERFFFNIFTRQCEQFYYGGCDGNQNRFESLEECKKMCTRD 8.70
